# System: Rattus norvegicus
# protocol_notes: Compound administered perorally was evaluated for the conditioned avoidance response in rats
# Format: functional
measured_endpoint: ED (mg/kg)
Just the number please, in mg/kg, no unit attached.

smiles_entry=Cn1cc2c(n1)Nc1ccc(F)cc1N=C2N1CCCCC1 unit_annotation=mg/kg quantitative_result=50

Problem: Item under review: CN1CCN(C2=Nc3cc(C(F)(F)F)ccc3Nc3nn(C)cc32)CC1 . Reported ED?
Solution: 25

Problem: Moving on to CN1CCN(C2=Nc3cc(Cl)ccc3Nc3nn(C4CCCC4)cc32)CC1
Solution: 50

Problem: Moving on to CN1CCN(C2=Nc3cc(F)ccc3Nc3nn(C)cc32)CC1
Solution: 100

Problem: Moving on to CC(C)n1cc2c(n1)Nc1ccc(F)cc1N=C2N1CCN(C)CC1
Solution: 25
